// provenance: patent US12544375B2

target: Miro1 (Homo sapiens, UniProt Q8IXI2); construct: We applied compound 3 to fibroblasts from one sporadic PD patient (PD-2); endogenous in cells; test: Miro1 response to CCCP in PD fibroblasts, Western blotting; conditions: fibroblasts pretreated 24 hrs, then CCCP 6 hrs; FIG. 2D; read-out: Miro1 protein levels, dose-dependent response (IC50)
Sequence (Q8IXI2 whole entry): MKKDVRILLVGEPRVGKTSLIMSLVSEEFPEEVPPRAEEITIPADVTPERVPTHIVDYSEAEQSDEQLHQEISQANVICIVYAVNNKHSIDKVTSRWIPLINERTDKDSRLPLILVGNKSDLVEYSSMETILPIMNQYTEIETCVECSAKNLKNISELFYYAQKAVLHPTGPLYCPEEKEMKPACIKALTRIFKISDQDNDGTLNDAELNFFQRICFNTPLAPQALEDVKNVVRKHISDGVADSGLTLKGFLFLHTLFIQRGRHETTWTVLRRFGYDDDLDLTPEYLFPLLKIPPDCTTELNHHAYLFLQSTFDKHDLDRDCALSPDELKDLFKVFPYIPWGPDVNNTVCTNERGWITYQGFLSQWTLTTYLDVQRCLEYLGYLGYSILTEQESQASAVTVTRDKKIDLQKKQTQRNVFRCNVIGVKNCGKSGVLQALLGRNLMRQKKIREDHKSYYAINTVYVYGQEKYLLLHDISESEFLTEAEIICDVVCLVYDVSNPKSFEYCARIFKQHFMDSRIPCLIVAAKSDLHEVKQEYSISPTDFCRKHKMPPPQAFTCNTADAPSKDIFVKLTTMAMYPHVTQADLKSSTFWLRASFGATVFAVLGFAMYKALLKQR

[
  {
    "Compound": "O=C(Nc1ccc(Nc2cc(-n3ccnc3)ncn2)cc1)Nc1cccc(F)c1 [Miro1 Reducer]",
    "Target Under Test": "Miro1 (Homo sapiens, UniProt Q8IXI2)",
    "Result Units": "µM",
    "IC50": 7.8
  }
]
